# Test system: CCRIS mutagenicity, Ames/micronucleus/aberration tests
# test summary: CCRIS mutagenicity studies
# protocol conditions: Test System: E. COLI; Strain/Indicator: WP2; Metabolic Activation: RAT, LIVER, S-9, AROCLOR 1254; Method: STANDARD PLATE
Activity calls are given as the source filed them. How the calls were made is not given here.
Possible outcomes: active, inactive

> print(dat)
                                    molecule  group.label
 1                             O=[N+]([O-])O     inactive
 2  CCCCCCCCCCCCCCCC(=O)OC[C@H](O)[C@H]1OC(=O)C(O)=C1O     inactive
 3     O=P(O)(O)OCC(O)CO (centres undefined)     inactive
 4                CCCOC(=O)c1cc(O)c(O)c(O)c1     inactive
 5  COP(=O)(OC)C(O)C(Cl)(Cl)Cl (centres undefined)       active
 6  CCOC(=O)C1C(C=C(C)C)C1(C)C (centres undefined)     inactive
 7                     COP(=O)(OC)OC=C(Cl)Cl       active
 8             S=C([S-])NCCNC(=S)[S-].[Zn+2]     inactive
 9  CCCCCCCCCCCCCCCC(=O)OC/C=C(C)/C=C/C=C(C)/C=C/C1=C(C)CCCC1(C)C     inactive
10             O=C(O)[C@H](O)[C@@H](O)C(=O)O     inactive
11                       CCCCCCCCCCCCCCCCCCO     inactive
12                            O=C(O)c1ccccc1     inactive
13  CC1(C)C(C=C(Cl)Cl)C1C(=O)OC(C#N)c1cccc(Oc2ccccc2)c1 (centres undefined)     inactive
14              ClCC1CO1 (centres undefined)       active

* * *

# System: CCRIS mutagenicity, Ames/micronucleus/aberration tests
# test summary: CCRIS mutagenicity studies
# protocol conditions: Test System: AMES SALMONELLA TYPHIMURIUM; Strain/Indicator: TA98(NR); Metabolic Activation: RAT, LIVER, S-9, PCB; Method: PREINCUBATION
Calls of active or inactive are those of the source. The rule behind the calls is not given here.
assay metric: mutagenic call

> print(dat)
                                item.smiles    assay.metric         test.result
1  Nc1ncnc2nc(-c3ccc([N+](=O)[O-])cc3)[nH]c12  mutagenic call    active; positive
2  O=[N+]([O-])c1ccc(CNc2ncnc3nc[nH]c23)cc1  mutagenic call  inactive; negative
3   O=[N+]([O-])c1ccc(Nc2ncnc3nc[nH]c23)cc1  mutagenic call  inactive; negative
4  Nc1nc(-c2ccc([N+](=O)[O-])cc2)nc2c1ncn2-c1ccc([N+](=O)[O-])cc1  mutagenic call    active; positive

* * *

# Test system: CCRIS mutagenicity, Ames/micronucleus/aberration tests
# test summary: CCRIS mutagenicity studies
# protocol conditions: Test System: AMES SALMONELLA TYPHIMURIUM; Strain/Indicator: TA98; Metabolic Activation: RAT, LIVER, S-9, AROCLOR; Method: PREINCUBATION
# Source text: The CCRIS database contains chemical records with carcinogenicity, mutagenicity, tumor promotion, and tumor inhibition test results. It was developed by the National Cancer Institute (NCI). Data are derived from studies cited in primary journals, current awareness tools, NCI reports, and other sources. Test results have been reviewed by experts in carcinogenesis and mutagenesis. CCRIS provides historical information from the years 1985 - 2011. It is no longer updated. […]
Active and inactive are the calls of the source. How the calls were made is not given here.
Outcome codes: True = active, False = inactive

> print(dat)
                                   compound  group.label
1                           CCC[N+](=O)[O-]        False
2  CCC(C(C)O)[N+](=O)[O-] (centres undefined)        False
3                   Cn1c(N)nc2c3cccnc3ccc21         True
4                         CCCCC[N+](=O)[O-]        False
